Overview of reported chromatographic logD across a group of molecules:
run.description: Measurement of LogD (CHI logD by HPLC)
Type: physicochemical
condition.summary: CHI log D, 50 mM ammonium acetate pH 7.4 / acetonitrile gradient, C-18 column, 25° C.
Lab note: record just the number, no unit beside it.

CC(C)C[C@@H]1NC(=O)[C@H](C)NC(=O)[C@H](C)NC(=O)[C@H](Cc2c[nH]c3ccccc23)NC(=O)[C@H](CCC(=O)O)NC(=O)[C@@H](NC(=O)[C@H](CCCNC(=N)N)NC(=O)[C@H](Cc2c[nH]cn2)NC(=O)[C@@H](NC(=O)[C@H](C)NC(=O)[C@@H]2CCCN2C(=O)[C@H](CC(=O)O)NC(=O)[C@H](C)N)[C@@H](C)O)CSCC(=O)O[C@@H]2CC[C@@H](C2)OC(=O)CSC[C@@H](C(=O)N[C@@H](CCC(=O)O)C(=O)N[C@@H](CC(C)C)C(=O)N[C@H](C(N)=O)C(C)C)NC(=O)[C@H](Cc2c[nH]cn2)NC1=O; 0.8
CC(C)C[C@@H]1NC(=O)[C@H](C)NC(=O)[C@H](C)NC(=O)[C@H](Cc2c[nH]c3ccccc23)NC(=O)[C@H](CCC(=O)O)NC(=O)[C@@H](NC(=O)[C@H](CCCNC(=N)N)NC(=O)[C@H](Cc2c[nH]cn2)NC(=O)[C@@H](NC(=O)[C@H](C)NC(=O)[C@@H]2CCCN2C(=O)[C@H](CC(=O)O)NC(=O)[C@H](C)N)[C@@H](C)O)CSCC(=O)N(C)c2ccc(cc2)N(C)C(=O)CSC[C@@H](C(=O)N[C@@H](CCC(=O)O)C(=O)N[C@@H](CC(C)C)C(=O)N[C@H](C(N)=O)C(C)C)NC(=O)[C@H](Cc2c[nH]cn2)NC1=O; 0.68

--- query ---
For the molecule shown here, CC(C)C[C@@H]1NC(=O)[C@H](C)NC(=O)[C@H](C)NC(=O)[C@H](Cc2c[nH]c3ccccc23)NC(=O)[C@H](CCC(=O)O)NC(=O)[C@@H](NC(=O)[C@H](CCCNC(=N)N)NC(=O)[C@H](Cc2c[nH]cn2)NC(=O)[C@@H](NC(=O)[C@H](C)NC(=O)[C@@H]2CCCN2C(=O)[C@H](CC(=O)O)NC(=O)[C@H](C)N)[C@@H](C)O)CSCC(=O)Nc2ccccc2NC(=O)CSC[C@@H](C(=O)N[C@@H](CCC(=O)O)C(=O)N[C@@H](CC(C)C)C(=O)N[C@H](C(N)=O)C(C)C)NC(=O)[C@H](Cc2c[nH]cn2)NC1=O , give the reported chromatographic logD.
0.77
